ASSAY_SYSTEM: T1, HLA-A*02:01 (human)
T1 construct: monomers captured on streptavidin plates; also called MHC class I
ASSAY_SUMMARY: UV peptide exchange ELISA
So I've got a bunch of binders here, and I need their peptide exchange yield values.

I'd like to know its peptide exchange yield. The binder in question is YLLQEIYGI
50 to 75%

I'd like to know its peptide exchange yield. The binder in question is KLPPPPPQA
50 to 75%

I'd like to know its peptide exchange yield. The binder in question is KLLEEDGTIITL
20 to 50%

I'd like to know its peptide exchange yield. The binder in question is FVPPVTVFPSL
20 to 50%

I'd like to know its peptide exchange yield. The binder in question is ALNDQVFEI
50 to 75%

I'd like to know its peptide exchange yield. The binder in question is SLLEAVSFL
50 to 75%

I'd like to know its peptide exchange yield. The binder in question is LLMPSSEDLLL
50 to 75%

I'd like to know its peptide exchange yield. The binder in question is SLQNHNHQL
50 to 75%

I'd like to know its peptide exchange yield. The binder in question is KLWTGGLDNTV
50 to 75%

I'd like to know its peptide exchange yield. The binder in question is ILVANAIVGV
50 to 75%

I'd like to know its peptide exchange yield. The binder in question is RLVDYLEGI
50 to 75%

I'd like to know its peptide exchange yield. The binder in question is SLFDGFADGLGV
50 to 75%

I'd like to know its peptide exchange yield. The binder in question is ALGYFVPYV
50 to 75%

I'd like to know its peptide exchange yield. The binder in question is GLPRFGIEMV
50 to 75%

I'd like to know its peptide exchange yield. The binder in question is LILEGVDTV
20 to 50%

I'd like to know its peptide exchange yield. The binder in question is TLIDAQWVL
50 to 75%
